Test: Equilibrium solubility of crisaborole in solvents by HPLC
Assay type: physicochemical
Test parameters: organic solvent or mixture, thermodynamic from solid; in Hexylene Glycol, NF; read-out: Solubity by HPLC
Assay metric: solubility (mg/mL)
Answers are plain numbers, in mg/mL.

q: # query: solubility of entry N#Cc1ccc(Oc2ccc3c(c2)COB3O)cc1 [Crisaborole Form II]
a: 356
